Where these numbers come from: the supplement of paper PMC3334620

SYSTEM NAME: Hap1 (UniProt P0CE41)
Sequence (P0CE41 whole entry): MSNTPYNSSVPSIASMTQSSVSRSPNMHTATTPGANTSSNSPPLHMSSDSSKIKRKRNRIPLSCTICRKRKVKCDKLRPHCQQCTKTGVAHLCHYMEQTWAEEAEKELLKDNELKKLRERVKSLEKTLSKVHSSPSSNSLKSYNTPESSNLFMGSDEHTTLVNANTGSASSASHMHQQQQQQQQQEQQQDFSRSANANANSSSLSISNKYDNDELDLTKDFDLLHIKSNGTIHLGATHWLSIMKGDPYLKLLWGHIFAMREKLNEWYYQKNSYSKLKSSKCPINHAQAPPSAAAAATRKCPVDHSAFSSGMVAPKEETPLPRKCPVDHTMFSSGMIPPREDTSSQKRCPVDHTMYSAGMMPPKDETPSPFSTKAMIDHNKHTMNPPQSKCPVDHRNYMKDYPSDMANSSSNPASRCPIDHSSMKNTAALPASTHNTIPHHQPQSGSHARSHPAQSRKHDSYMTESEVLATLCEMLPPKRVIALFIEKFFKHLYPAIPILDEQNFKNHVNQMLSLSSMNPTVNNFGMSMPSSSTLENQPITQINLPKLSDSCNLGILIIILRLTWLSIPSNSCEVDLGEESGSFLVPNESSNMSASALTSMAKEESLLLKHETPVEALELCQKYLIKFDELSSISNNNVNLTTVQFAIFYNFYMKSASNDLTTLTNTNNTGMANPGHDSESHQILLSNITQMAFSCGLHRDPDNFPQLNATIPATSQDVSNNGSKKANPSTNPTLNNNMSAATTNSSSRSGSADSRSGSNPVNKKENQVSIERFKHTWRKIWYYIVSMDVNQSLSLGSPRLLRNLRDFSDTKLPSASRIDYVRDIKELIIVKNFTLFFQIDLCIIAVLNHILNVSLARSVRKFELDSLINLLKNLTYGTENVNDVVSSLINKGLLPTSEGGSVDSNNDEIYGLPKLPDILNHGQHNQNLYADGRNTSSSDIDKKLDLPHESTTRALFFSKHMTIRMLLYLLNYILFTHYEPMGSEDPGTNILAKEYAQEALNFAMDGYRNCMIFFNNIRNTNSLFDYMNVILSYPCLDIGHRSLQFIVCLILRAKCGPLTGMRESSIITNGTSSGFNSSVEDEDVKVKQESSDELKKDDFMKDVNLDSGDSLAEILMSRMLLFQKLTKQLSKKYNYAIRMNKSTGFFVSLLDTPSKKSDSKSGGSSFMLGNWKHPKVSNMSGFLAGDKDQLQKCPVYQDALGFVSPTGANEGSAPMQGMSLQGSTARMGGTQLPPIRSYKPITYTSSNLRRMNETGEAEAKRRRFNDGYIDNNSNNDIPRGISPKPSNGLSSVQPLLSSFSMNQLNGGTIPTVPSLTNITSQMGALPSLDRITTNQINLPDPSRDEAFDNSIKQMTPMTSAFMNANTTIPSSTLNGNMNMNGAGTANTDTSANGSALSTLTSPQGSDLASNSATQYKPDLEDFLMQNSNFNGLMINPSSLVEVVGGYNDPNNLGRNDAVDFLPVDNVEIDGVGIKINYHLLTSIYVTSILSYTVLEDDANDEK
TEST: PBM E-score (8-mer binding enrichment) (E-score (-0.5 to 0.5)); higher = stronger / more preferred TF binding
SETTINGS: protein concentration: 200 nM; construct: GST-DNA-binding domain
Whole data set: some 33,000 sequences, median “E-score (-0.5 to 0.5)” near -0.053, cut for the highest 2% near 0.37. Only a selection was taken, and the highest values are over-represented in it overall.
# PBM E-score >= 0.2 gives criterion met, anything below gives criterion not met

ACTCGGAG	criterion met
CAAATCCG	criterion met
ATTATCGC	criterion not met
AAGACCGA	criterion met
ACCGATGA	criterion met

(Q) Quick check: does TGTCCGAA have PBM E-score greater than or equal to 0.2?
(A) criterion met

(Q) Now try CGCGATAA .
(A) criterion not met

(Q) Now try CGTGGTTA .
(A) criterion not met

(Q) Now try GGCGATAA .
(A) criterion met

(Q) Now try CCTCGGAC .
(A) criterion met

(Q) Now try ACCGGCGG .
(A) criterion met

(Q) Now try CGCCCGAC .
(A) criterion met

(Q) Now try TGTCCTAA .
(A) criterion not met

(Q) Now try CGGCTACG .
(A) criterion not met

(Q) Now try AACAAAGG .
(A) criterion not met

---

SYSTEM NAME: Hap1 (UniProt P0CE41)
TEST: PBM E-score (8-mer binding enrichment) (E-score (-0.5 to 0.5)); higher = stronger / more preferred TF binding
SETTINGS: protein concentration: 200 nM; construct: GST-DNA-binding domain
Over roughly 33,000 sequences, “E-score (-0.5 to 0.5)” has its median near -0.053; the highest 2% begin near 0.37. Only a selection was taken, and the highest values are over-represented in it overall.
QUANTITY: PBM E-score
Numbers only.

Here is how some sequences turned out for PBM E-score.
CCGTCCTA	-0.104
CGTGTACC	0.11
AAACGCCC	0.263

Go through the items and report each one's PBM E-score.
1. ATTCCGCG
2. CCGTCCGC
3. ATTCCGGG
4. ACAGCACT
5. ATCACGGC

(A)
1: 0.285; 2: 0.231; 3: 0.374; 4: -0.0793; 5: 0.134

---

Consider the following sequences; for each one, report its PBM E-score.
SYSTEM NAME: Hap1 (UniProt P0CE41)
TEST: PBM E-score (8-mer binding enrichment) (E-score (-0.5 to 0.5)); higher = stronger / more preferred TF binding
SETTINGS: protein concentration: 200 nM; construct: GST-DNA-binding domain
Whole data set: some 33,000 sequences, median “E-score (-0.5 to 0.5)” near -0.053, cut for the highest 2% near 0.37. Shown is part of a subset that was picked to be rich in the highest values.
One number for each entry.

Here is how some sequences turned out for PBM E-score.
CGGCCGGA	0.436
AGCCGATC	0.245
ATCGGAAT	0.363
CGGCCGTA	0.417

Go through the items and report each one's PBM E-score.
1. CCGGATAC
2. ACGCCTAC
3. GTCGGAAA
4. ATCTGGCG
5. CCCCGAGC
6. CGAGATAA
7. CTCCGACC

(A)
1: 0.323; 2: -0.0649; 3: 0.361; 4: 0.0049; 5: 0.351; 6: 0.164; 7: 0.359

Go through the items and report each one's PBM E-score.
1. CGCCGGCA
2. CCTATCAA
3. GGGGAATA
4. CGGGAATA
5. GTGCTGCA
6. ACGGAGAG

(A)
0.349
-0.119
0.107
0.458
0.0816
0.284

---

SYSTEM NAME: Hap1 (UniProt P0CE41)
TEST: PBM E-score (8-mer binding enrichment) (E-score (-0.5 to 0.5)); higher = stronger / more preferred TF binding
SETTINGS: protein concentration: 200 nM; construct: GST-DNA-binding domain
Over roughly 33,000 sequences, “E-score (-0.5 to 0.5)” has its median near -0.053; the highest 2% begin near 0.37. Only a selection was taken, and the highest values are over-represented in it overall.
Consider the following sequences; for each one, report its PBM E-score.
Give bare numbers.

Here is how some sequences turned out for PBM E-score.
AGCATCCG	0.215
GATGAGCA	-0.0729
ACGGCAAC	-0.0151
AAGGACAG	-0.182
CCAGCGTC	0.0197

Go through the items and report each one's PBM E-score.
1. CCGGCAAG
2. TTAGAAAA
3. ACGTTATC
4. AGTGAGCA

(A)
1. 0.269
2. -0.0981
3. 0.17
4. -0.28

---

SYSTEM NAME: Hap1 (UniProt P0CE41)
TEST: PBM E-score (8-mer binding enrichment) (E-score (-0.5 to 0.5)); higher = stronger / more preferred TF binding
SETTINGS: protein concentration: 200 nM; construct: GST-DNA-binding domain
Whole data set: some 33,000 sequences, median “E-score (-0.5 to 0.5)” near -0.053, cut for the highest 2% near 0.37. The full list was thinned out, with the highest values kept by preference.
# PBM E-score >= 0.03 gives true (1), anything below gives false (0)

CGGAAGTC	true (1)
CGAATTAC	true (1)
CGGGGCAA	true (1)
TCGTTCAA	false (0)
CCGGGCAA	true (1)

(Q) Quick check: does CAAGTCCA have PBM E-score greater than or equal to 0.03?
(A) false (0)

---

SYSTEM NAME: Hap1 (UniProt P0CE41)
TEST: PBM E-score (8-mer binding enrichment) (E-score (-0.5 to 0.5)); higher = stronger / more preferred TF binding
SETTINGS: protein concentration: 200 nM; construct: GST-DNA-binding domain
Whole data set: some 33,000 sequences, median “E-score (-0.5 to 0.5)” near -0.053, cut for the highest 2% near 0.37. For the sample, the highest values were picked, then their nearest neighbours and some sequences at random.
Consider the following sequences; for each one, report its PBM E-score.
One number for each entry.

AAAGGCGC	-0.0167
AGGATATC	0.155
ATAACTCA	-0.0521
CGGATAAC	0.359
ATCGGCAG	0.315
ATCGGGCC	0.324
CGGATAAA	0.381
CGGATCTA	0.404

Go through the items and report each one's PBM E-score.
1. GAGACGCC
2. AATATATC
3. GTACCGAA
4. ATCGGCGG
5. CTAACTCA
6. CTGATATC
7. AACGGCCT
8. ATCGGCCG

(A)
1. 0.0301
2. 0.26
3. 0.0413
4. 0.408
5. -0.177
6. 0.26
7. 0.074
8. 0.443

Go through the items and report each one's PBM E-score.
1. GGGATCTA
2. ATAACTCC
3. GATATATA
4. AACGGCCG
5. CGGATATC
6. AATCCATG

(A)
[0.134, 0.4, 0.198, 0.405, 0.39, -0.036]

---

SYSTEM NAME: Hap1 (UniProt P0CE41)
TEST: PBM E-score (8-mer binding enrichment) (E-score (-0.5 to 0.5)); higher = stronger / more preferred TF binding
SETTINGS: protein concentration: 200 nM; construct: GST-DNA-binding domain
Whole data set: some 33,000 sequences, median “E-score (-0.5 to 0.5)” near -0.053, cut for the highest 2% near 0.37. The sample as a whole holds a higher share of the highest values than the screen did.
Category scheme (PBM E-score): bottom bin = under 0.08, middle bin = from 0.08 up to 0.3, top bin = 0.3 and over

Below are worked cases with known answers.
AGGCCGAT	top bin
CGGCTTTC	middle bin
CGGCTTAG	middle bin
GCGTCTAA	bottom bin
GGCCGGGA	top bin
CGGAGCTC	top bin
ACATCTCT	bottom bin
GCCGTTAA	top bin
CACCAAGC	bottom bin
AGAAAAAG	bottom bin

(Q) Just checking, what class would you give CTCCGGGC here?
(A) top bin

(Q) Now try TGGCTTAA .
(A) bottom bin

(Q) Now try CGGGCGAA .
(A) top bin

(Q) Now try CGTCCGCA .
(A) middle bin

(Q) Now try GGTCCGGA .
(A) top bin

(Q) Now try ACAGCTAC .
(A) bottom bin

(Q) Now try AGGCTATA .
(A) bottom bin

---

SYSTEM NAME: Hap1 (UniProt P0CE41)
TEST: PBM E-score (8-mer binding enrichment) (E-score (-0.5 to 0.5)); higher = stronger / more preferred TF binding
SETTINGS: protein concentration: 200 nM; construct: GST-DNA-binding domain
Over roughly 33,000 sequences, “E-score (-0.5 to 0.5)” has its median near -0.053; the highest 2% begin near 0.37. Shown is part of a subset that was picked to be rich in the highest values.
Consider the following sequences; for each one, report its PBM E-score.
Answers are plain numbers.

CCGGTAAG	0.391

Go through the items and report each one's PBM E-score.
1. ACAGCGCG
2. ACAGTGCT
3. CCAGGCCC

(A)
[0.0018, -0.138, -0.0511]

Go through the items and report each one's PBM E-score.
1. CCTCCGGC
2. GGGTTATA
3. GCAGTAGA
4. AATAGATG
5. AGACTTAA

(A)
[0.399, 0.0789, -0.3, -0.118, -0.18]

Go through the items and report each one's PBM E-score.
1. AGGTTTTA
2. TCCTCCGA
3. GGGCACAA
4. AAAGCCGC
5. TAAGCCGA
6. GGACTTAA

(A)
[0.0786, 0.308, -0.0367, 0.305, 0.382, 0.443]

Go through the items and report each one's PBM E-score.
1. AGAGTAGA
2. CCTCCGCA
3. AAAGGCAT
4. ACGGTAAG
5. CCGGTACG
6. GCAACCCC
7. CCTCCGAC
8. CCCTCCGG

(A)
[0.0496, 0.173, -0.125, 0.067, 0.342, 0.0182, 0.28, 0.331]

Go through the items and report each one's PBM E-score.
1. CACAATGC
2. CCTCCTCA
3. AAAGCCCC

(A)
1. -0.0342
2. -0.13
3. 0.106

Go through the items and report each one's PBM E-score.
1. ACTATCAA
2. CAGGGGAG
3. CCCCGATA
4. AAGATGGG
5. GCGGTGGA
6. AAAAGCCT
7. CGACTTAA
8. AAAAGCCG

(A)
0.0295
-0.137
0.44
-0.126
0.0678
-0.221
-0.169
0.414

Go through the items and report each one's PBM E-score.
1. CCTCCGTA
2. ATTGACCC
3. GCCCGATA
4. GCCCGACA
5. CCTATAGA

(A)
[0.246, -0.0115, 0.423, 0.255, -0.198]

Go through the items and report each one's PBM E-score.
1. GTCGCGAC
2. CCGGTAAC
3. ACACCTTC
4. AGCAGGAT
5. CCTCCGGA

(A)
1. 0.244
2. 0.36
3. 0.105
4. -0.0378
5. 0.418
